Give measured inhibition at 30000 µM for each item. Keep answers brief.
target: AeKir (Aedes aegypti); assay: fluorescence-based in vitro thallium; format: cell-based; details: HEK293
# output: bare number, implied unit %

Task: Please state recorded inhibition at 30000 µM (tested on AeKir (Aedes aegypti)) of O=[N+]([O-])c1ccc(N2CCN(S(=O)(=O)c3ccc(F)cc3)CC2)cc1NCc1nc2ccccc2o1 [Compound 9u]
Result: 29

Task: Please state recorded inhibition at 30000 µM (tested on AeKir (Aedes aegypti)) of O=[N+]([O-])c1ccc(N2CCN(S(=O)(=O)c3ccc(F)cc3)CC2)cc1NCc1cc2ccccc2o1 [Compound 9t]
Result: 10

Task: Please state recorded inhibition at 30000 µM (tested on AeKir (Aedes aegypti)) of CC(Nc1cc(N2CCN(S(=O)(=O)c3ccc(F)cc3)CC2)ccc1[N+](=O)[O-])c1ncco1 (stereo not drawn) [Compound 9l]
Result: 109
